subject-of-test: SLK (Homo sapiens, UniProt Q9H2G2)
assay-protocol: DSF Tm panel
Assay type: binding
Parameters: purchased in-house DSF kinase panel (SGC-style construct names; the trailing letter is the construct ID)
particulars: 10 μM compound
Could you mark each record Yes if its ΔTm at 10 µM falls strictly under 4 °C, and No if it equals or exceeds it?

O=C(NCc1ccc(Cl)cc1F)Nc1ccc2cc1OCCOCCNc1ccn3ncc-2c3n1 ... No
Cc1ccc(F)cc1CNC(=O)Nc1ccc2cc1OCCOCCNc1ccn3ncc-2c3n1 ... Yes

Here's the next entry for you.
Incoming: Answer whether the compound "COc1ccc(CNC(=O)Nc2ccc3cc2OCCOCCNc2ccn4ncc-3c4n2)cc1F" has ΔTm at 10 µM strictly less than 4 °C
Outgoing: Yes
